Readout: melting point

Examples from the recorded data:
{"columns": ["Compound", "melting point"],
 "data": [
  ["CC1(C)CC(O)CC(C)(C)N1N=Nc1ccc([N+](=O)[O-])cc1", "108 to 110 °C"],
  ["O=C(NCc1ccc(Cl)cc1)c1cnc2c(I)cc(CO)cc2c1O", "283 to 286 °C"],
  ["COC(=O)c1cccc(CN2CCOc3ccc(N)cc32)c1", "167 to 171 °C"],
  ["O=S(=O)(c1ccc(Cl)c(CBr)c1Cl)N1CC[C@H](O)C1", "120 °C"],
  ["CCCCc1c(C(=O)OCC)cc(Oc2nnnn2-c2ccccc2)c2c(OC)cccc12", "144 to 146 °C"],
  ["O=C(Nc1cccc([N+](=O)[O-])c1)NC1CC(C(=O)O)Nc2cc(Cl)cc(Cl)c21 (stereo unspecified)", "209 to 210 °C"]
]}

Give the reported value of melting point for this record: COCN1C(=O)OC(C)(C)c2cc(-c3cc(F)cc(C#N)c3)ccc21
169 to 171 °C

Give the reported value of melting point for this record: O=C1NCc2c(O)nc3ccccc3c21
245 to 246 °C

Give the reported value of melting point for this record: O=c1ccc2cnc(Nc3ccccc3)nc2n1CCCOc1ccccc1
175 to 176 °C

Give the reported value of melting point for this record: O=C(Nc1cccc2ccccc12)NC(Cc1ccc(C(F)(F)F)cc1)C(O)c1ccc(F)cc1 (stereo unspecified)
222 to 223 °C

Give the reported value of melting point for this record: O=C1COCCOCC(=O)N2CCOCCOCCN1CCOCC2
105 °C

Give the reported value of melting point for this record: CC1CCc2cc(F)cc3c(=O)c(C(=O)Cl)cn1c23 (stereo unspecified)
183 to 186 °C

Give the reported value of melting point for this record: COC1NC(=O)CC2CC1c1ccccc12 (stereo unspecified)
205 to 207 °C

Give the reported value of melting point for this record: CC(NC(=O)c1cc(Cl)cc(Br)c1NC(=O)c1cc(Br)nn1-c1ncccc1Cl)C1CC1 (stereo unspecified)
244 to 247 °C

Give the reported value of melting point for this record: CC(=O)OC1CCCCC1n1cnc2cc(Cl)c(Cl)cc21 (stereo unspecified)
145 to 147 °C

Give the reported value of melting point for this record: Cc1cc2nc3ccccc3sc-2c(Br)c1=O
190 °C

Give the reported value of melting point for this record: O=S1(=O)NC(C2=CCCCC2)Nc2cc(Cl)ccc21 (stereo unspecified)
252 to 254 °C
